Molecular target: pre-existing anti-scFv903 antibodies in human serum H80 (human)
Assay: competition ADA bridging ELISA, 100 mcg/ml competitor
measured_property: % reduction in OD

Worked examples follow.
binder | % reduction in OD
scFv105 (scFv) scFv: DIVMTQSPSSLSASVGDRVTLTCTASQSVSNDVVWYQQRPGKAPKLLIYSAFNRYTGVPSRFSGRGYGTDFTLTISSLQPEDVAVYYCQQDYNSPRTFGQGTKLEVKRGGGGSGGGGSGGGGSSGGGSQVQLVQSGAEVKKPGASVKVSCTASGYTFTHYGMNWVRQAPGKGLEWMGWINTYTGEPTYADKFKDRFTFSLETSASTVYMELTSLTSDDTAVYYCARERGDAMDYWGQGTLVTVSS | -50.9%
scFv 961 (scFv) scFv: EIVMTQSPSTLSASVGDRVIITCQASEIIHSWLAWYQQKPGKAPKLLIYLASTLASGVPSRFSGSGSGAEFTLTISSLQPDDFATYYCQNVYLASTNGANFGQGTKLTVLGGGGGSGGGGSGGGGSGGGGSEVQLVESGGGSVQPGGSLRLSCTASGFSLTDYYYMTWVRQAPGKGLEWVGFIDPDDDPYYATWAKGRFTISRDTSKNTVYLQMNSLRAEDTATYYCAGGDHNSGWGLDIWGQGTTVTVSS | -55.1%
scFv 903 (scFv) scFv: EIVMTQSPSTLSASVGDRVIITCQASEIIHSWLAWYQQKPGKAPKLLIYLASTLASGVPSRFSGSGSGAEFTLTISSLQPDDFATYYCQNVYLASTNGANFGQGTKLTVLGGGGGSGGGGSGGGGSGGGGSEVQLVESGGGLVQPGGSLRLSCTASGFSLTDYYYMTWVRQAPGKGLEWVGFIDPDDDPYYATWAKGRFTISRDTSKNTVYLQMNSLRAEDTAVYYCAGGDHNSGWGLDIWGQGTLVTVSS | -87%

Turning now to a further record.
Q: Look up % reduction in OD: scFv 791 (scFv) scFv: MEIVMTQSPSTLSASLGDRVIITCQSSQSVYGNIWMAWYQQKSGKAPKLLIYQASKLASGVPSRFSGSGSGAEFSLTISSLQPDDFATYYCQGNFNTGDRYAFGQGTKLTVLGGGGGSGGGGSGGGGSGGGGSEVQLVESGGGLVQPGGSLRLSCTASGFTISRSYWICWVRQAPGKGLEWVACIYGDNDITPLYANWAKGRFPVSTDTSKNTVYLQMNSLRAEDTAVYYCARLGYADYAYDLWGQGTLVTVSS
Result: -85.3%
